# ASSAY TARGET: UGT2B7 (Homo sapiens, UniProt P16662)
# Sequence (P16662 24-529): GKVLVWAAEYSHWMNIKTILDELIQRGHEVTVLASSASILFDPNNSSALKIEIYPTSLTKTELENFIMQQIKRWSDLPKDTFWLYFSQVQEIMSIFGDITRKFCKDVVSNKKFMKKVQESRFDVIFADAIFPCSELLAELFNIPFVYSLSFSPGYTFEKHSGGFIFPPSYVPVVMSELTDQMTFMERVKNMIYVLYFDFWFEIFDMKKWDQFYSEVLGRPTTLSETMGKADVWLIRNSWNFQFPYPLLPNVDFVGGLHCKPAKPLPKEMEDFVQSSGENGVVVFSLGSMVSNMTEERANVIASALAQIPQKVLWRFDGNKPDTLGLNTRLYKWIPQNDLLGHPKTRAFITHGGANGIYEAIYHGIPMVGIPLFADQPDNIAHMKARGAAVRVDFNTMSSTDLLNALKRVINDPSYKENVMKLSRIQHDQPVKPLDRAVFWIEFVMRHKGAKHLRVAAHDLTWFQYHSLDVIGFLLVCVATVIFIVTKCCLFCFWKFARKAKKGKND
pIC50: −log10 of the molar value.
EXPERIMENTAL ENDPOINT: pIC50

Q. What pIC50 value was documented for this compound, CCCCCn1nc(C(=O)N[C@H](C(N)=O)C(C)C)c2ccccc21 ?
A. < 4.00
